# SYSTEM TESTED: human CD33 on primary human monocyte-derived dendritic cells (human, UniProt P20138 18-364)
# Sequence (P20138 18-364): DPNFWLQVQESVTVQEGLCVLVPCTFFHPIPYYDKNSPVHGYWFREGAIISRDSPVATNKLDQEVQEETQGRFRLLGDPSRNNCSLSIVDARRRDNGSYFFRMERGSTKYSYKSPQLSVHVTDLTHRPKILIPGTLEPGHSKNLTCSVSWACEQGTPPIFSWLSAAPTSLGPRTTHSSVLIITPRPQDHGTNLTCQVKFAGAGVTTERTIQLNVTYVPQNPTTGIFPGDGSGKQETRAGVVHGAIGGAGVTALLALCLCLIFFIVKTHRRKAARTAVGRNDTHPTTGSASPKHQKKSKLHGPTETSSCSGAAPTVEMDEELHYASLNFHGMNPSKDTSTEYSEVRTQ
# ASSAY NOTES: cell-based or functional assay
READOUT NAME: Receptor downregulation (% remaining at 0.16 µg/mL antibody) (%)

[[record]]
binder = "AB-64.1 (antibody, V domains shown) VH: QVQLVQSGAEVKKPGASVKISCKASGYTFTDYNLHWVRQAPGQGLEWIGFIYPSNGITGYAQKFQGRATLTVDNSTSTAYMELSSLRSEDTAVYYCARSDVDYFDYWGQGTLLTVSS VL: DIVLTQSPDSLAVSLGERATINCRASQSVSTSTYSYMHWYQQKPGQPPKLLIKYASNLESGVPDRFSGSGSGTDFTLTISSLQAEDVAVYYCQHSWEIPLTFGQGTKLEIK"
units = "%"
number = 37.2

[[record]]
binder = "AB-64.1.10 (antibody, V domains shown, Variant of AB-64.1) VH: QVQLVQSGAEVKKPGASVKISCKASGYTFTDYNLHWVRQAPGQGLEWIGFIYPSNRITGYAQKFQGRATLTVDTSTSTAYMELSSLRSEDTAVYYCARSDVDYFDYWGQGTLLTVSS VL: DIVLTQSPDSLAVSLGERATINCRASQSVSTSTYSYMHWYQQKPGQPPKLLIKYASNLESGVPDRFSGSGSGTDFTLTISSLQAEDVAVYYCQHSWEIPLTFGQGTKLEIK"
units = "%"
number = 39.8

[[record]]
binder = "AB-64.1.15 (antibody, V domains shown, Variant of AB-64.1) VH: QVQLVQSGAEVKKPGASVKISCKASGYTFTDYNLHWVRQAPGQGLEWIGFIYPSNVITGYAQKFQGRATLTVDNSASTAYMELSSLRSEDTAVYYCARSDVDYFDYWGQGTLLTVSS VL: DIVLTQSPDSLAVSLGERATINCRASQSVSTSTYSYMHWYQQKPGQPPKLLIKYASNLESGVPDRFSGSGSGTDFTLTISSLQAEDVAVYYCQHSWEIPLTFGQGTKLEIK"
units = "%"
number = 38.9

